These measurements were taken from patent US8476197B2.

# CONDITION_DESCRIPTION: pH 2.7
Marks after values point to notes of the source that are not given here.
MEASURED_QUANTITY: Log P

INSERT INTO assay_data (compound, result) VALUES
  ('CCOC(=O)C(C#N)=C(NC(C)CN(C)C)c1conc1C (centres unmarked)', '0.76^[a]'),
  ('CCOC(=O)C(C#N)=C(NC(C)c1cscn1)c1ccncc1Br (mixture of isomers)', '2.4^[a]'),
  ('CCOC(=O)C(C#N)=C(NCC1(C)COC1)c1cn(C)nc1C(F)F', '2.04^[a]'),
  ('CCOC(=O)C(C#N)=C(NC(C)COC)c1cn(C)nc1C(Cl)Cl (centres unmarked)', '2.76^[a]'),
  ('CCOC(=O)C(C#N)=C(NC(C)C(C)C)c1nc(SC)ncc1Br (centres unmarked)', '4.26^[a]');

Read the next record carefully.
Which value of Log P has been reported for CCOC(=O)C(C#N)=C(Nc1ccc(C(C)C)cc1)c1sc(C)nc1C(F)(F)F in the records?
4.54^[a]
